- test.summary: Plasma kinetics after single oral dose of 300 mg Pycnogenol in healthy volunteers
- Type: in vivo, human
- assay.conditions: both sexes, human, plasma, po, 300 mg, human volunteers, single oral dose 300 mg Pycnogenol, total (free and conjugated) plasma, t = 14 h, mean ± SD; read-out: AUC [0-t]
- Text: Eleven volunteers (five female and six male) participated in this study. […] The HPLC system was a Waters HPLC (Milford, MA, USA) consisted of a 1525 binary pump, a 717plus autosampler, a 2487 dual wavelength absorbance detector set at the detection wavelength of 280 nm and an electrochemical detector CLC 100 (Chromsystems, Munich, Germany) set at an oxidation voltage of 0.5 V. The second detector was connected to the control system by a satellite interface (Waters). […]
AUC(0-t) overview
Unit ng·h/mL implied. Number only.

For orientation, consider the following solved cases.
COc1cc(/C=C/C(=O)O)ccc1O = 99
O=C1c2c(O)cc(O)cc2O[C@H](c2ccc(O)c(O)c2)[C@H]1O (racemic) [Taxifolin, (±)-taxifolin] = 231

Switching to the query record.
## Task So what does the record say about AUC(0-t) for O=C(O)/C=C/c1ccc(O)c(O)c1 ?
## Result 75.7

* * *

tmax overview
- test.summary: Plasma kinetics after single oral dose of 300 mg Pycnogenol in healthy volunteers
- Assay type: in vivo, human
- assay.conditions: both sexes, human, plasma, po, 300 mg, human volunteers, single oral dose 300 mg Pycnogenol, total plasma, mean ± SD; read-out: tmax (time of maximal plasma concentration)

For orientation, consider the following solved cases.
O=C1c2c(O)cc(O)cc2O[C@H](c2ccc(O)c(O)c2)[C@H]1O (racemic) [Taxifolin, (±)-taxifolin] = 8 h
O=C1CCC(Cc2ccc(O)c(O)c2)O1 (stereo not shown) [M1, δ-(3,4-Dihydroxy-phenyl)-γ-valerolactone] = ~10 h
O=C(O)/C=C/c1ccc(O)c(O)c1 = 3 to 4 h

Switching to the query record.
## Task So what does the record say about tmax for Oc1cc(O)c2c(c1)O[C@H](c1ccc(O)c(O)c1)[C@@H](O)C2 [Catechin, (+)-catechin] ?
## Result ≤ 3 h
